Assay: RAM pathway blockade in budding yeast – dse1pr::URA3 reporter, 5-FOA selection, pilot screen (AID 869);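 also: 0% = DMSO wells with no growth and 100% = 10 µM 1-NA-PP1 with full growth; RAM network block rescues cells from 5-FOA so hits raise OD615 growth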
Conditions: S. cerevisiae dse1pr::URA3 5-FOA growth, OD615, 2 d; at 10 µM; active compounds read high; strain carries analog-sensitive mutant Cbk1 kinase
Calls of active or inactive are those of the source.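 The calls were made as follows: active = inhibition over a set limit, the all-compound mean plus 3 SD, in both replicate runs; inconclusive = over that limit in just one replicate run; inactive = at or under that limit in both runs.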
We begin with a simple list: items and their reported inhibition.

Would you please look over these solved cases?
In [3]: df
Out[3]:
                                compound  measurement_kind            result
0  C=CCOC(=O)COc1ccc2c(C)c(C)c(=O)oc2c1C        inhibition     1% (inactive)
1      CCOC(=O)CN1C(=O)C(=O)c2cccc(C)c21        inhibition  1.77% (inactive)

INPUT: Identify measured inhibition associated with CCCCSc1nc(CCC)cc(=O)[nH]1
OUTPUT: 0.635% (inactive)

INPUT: Identify measured inhibition associated with O=C(NC1(C(=O)NC2CCCCC2)CCCCC1)c1ccc2c(c1)OCO2
OUTPUT: 1% (inactive)

INPUT: Identify measured inhibition associated with Cc1ccnc(SCCn2c(N3CCN(Cc4ccccc4)CC3)nc3c2c(=O)[nH]c(=O)n3C)n1
OUTPUT: 0.145% (inactive)

INPUT: Identify measured inhibition associated with O=C(CC1Oc2ccc(Cl)cc2NC1=O)NC1CCCCCC1 (stereo not given)
OUTPUT: 3.56% (inactive)

INPUT: Identify measured inhibition associated with COC(=O)C1(C(F)(F)F)N=C2Sc3ccccc3N2C(N2CCOCC2)=N1 (stereo not given)
OUTPUT: 1.03% (inactive)
